Each recorded value in this set is attributed to ChEMBL document CHEMBL4513216.

The entries below are paired with their reported INHIBITION.
# Test system: Plasmodium berghei
# assay-method-text: Screen against P. berghei liver stage (PbLuc), transformed with Luciferase, at 2uM
# Assay type: functional, HepG2
# cond: tested at 2 uM
Hit rate of the full screen: of about 68,000 compounds, about 2,700 (4%) showed an effect of 50% or more. Only a selection was taken, and strong results are over-represented in it overall.
Your answer is read as %, so omit the unit and give the number.

>>> print(df.to_string())
                                   molecule  outcome_measure  unit_name  meas_value
0  COc1cc(CCC(=O)NC(C)C(=O)O)ccc1OCC(F)(F)F (stereo not drawn)       INHIBITION          %      -16.42
1  Cc1ccc(N2CCCC(NCC(=O)NCC3CC3)C2)nn1 (stereo not drawn)       INHIBITION          %       42.92

Req: Name the recorded INHIBITION for O=C(C1CCC1)N1CCC2(CC1)OCCO2 .
Resp: 11.87

###

# Test system: Plasmodium berghei
# assay-method-text: Screen against P. berghei liver stage (PbLuc), transformed with Luciferase, at 2uM
# Assay type: functional, HepG2
# cond: tested at 2 uM
Screen size: about 68,000 compounds; about 2,700 (4%) showed an effect of 50% or more. The sample as a whole holds a higher share of strong results than the screen did.
outcome-measure: INHIBITION (%)
Your answer is read as %, so omit the unit and give the number.

# count of solved cases: 2
                                   compound  meas_value
0  NC(=O)COc1ccc(CN2CCNC(C(=O)NC3CC3)C2)cc1Cl (centres undefined)       32.69
1      Cc1ccccc1-c1cc(NC(=O)NC2CC2)n(CCO)n1       57.75

Req: Request body: readout INHIBITION, system Plasmodium berghei, query Cc1ccc2c(c1)C1(CCNCC1)CC2NC1CC1 (centres undefined) . Return the value.
Resp: 13.67

Req: Request body: readout INHIBITION, system Plasmodium berghei, query c1cnn(C2CN(Cc3nc(-c4ccsc4)no3)C2)c1 . Return the value.
Resp: -5.2

###

The entries below are paired with their reported INHIBITION.
# System: Plasmodium berghei
# assay-method-text: Screen against P. berghei liver stage (PbLuc), transformed with Luciferase, at 2uM
# Format: functional, HepG2
# cond: tested at 2 uM
In all, about 68,000 compounds went through this assay and about 2,700 (4%) showed an effect of 50% or more. For the sample, strong results were picked, then their nearest neighbours and some compounds at random.
Your answer is read as %, so omit the unit and give the number.

# count of solved cases: 3
                                   compound  outcome_measure  meas_value
0  Cc1ncc(CNC(=O)CCc2c(C)noc2C)c(C2CCCN2C)n1 (centres undefined)       INHIBITION       58.18
1  CC(=O)N1CCN(C(=O)c2[nH]nnc2Nc2ccccc2F)CC1       INHIBITION      -66.39
2  NC1CCCCN(Cc2cc(-c3ccccc3OC(F)(F)F)no2)C1 (centres undefined)       INHIBITION       28.63

Next up:
Req: Name the recorded INHIBITION for Cc1cc(C)c(CNC(=O)C2CCN(c3cnccn3)CC2)c(=O)[nH]1 .
Resp: -7.02

###

# System: Plasmodium berghei
# assay-method-text: Screen against P. berghei liver stage (PbLuc), transformed with Luciferase, at 2uM
# Assay type: functional, HepG2
# cond: tested at 2 uM
In all, about 68,000 compounds went through this assay and about 2,700 (4%) showed an effect of 50% or more. The entries come from a sample that favours strong results as a whole.
outcome-measure: INHIBITION (%)
Your answer is read as %, so omit the unit and give the number.

# count of solved cases: 4
In [3]: df
Out[3]:
                                   compound  outcome_measure  meas_value
0  Cc1nnc(NC(=O)CN2CCc3c(nc(C4CC4)n3C)C2)s1       INHIBITION       51.94
1  COC(=O)CC(NC(=O)CCn1cccn1)c1ccc(C)cc1 (stereo not drawn)       INHIBITION       60.13
2   CCn1cc(CN2CCCN(C(=O)C3(C)CCOCC3)CC2)cn1       INHIBITION       -1.55
3    CC(C)c1nc2c(n1C)CCN(CC(=O)Nc1ccncc1)C2       INHIBITION      -14.17

Req: Name the recorded INHIBITION for CC(C)c1nc2c(n1C)CCN(CC(=O)Nc1cccnc1)C2 .
Resp: -14.17

###

# Test system: Plasmodium berghei
# assay-method-text: Screen against P. berghei liver stage (PbLuc), transformed with Luciferase, at 2uM
# Assay type: functional, HepG2
# cond: tested at 2 uM
Screen size: about 68,000 compounds; about 2,700 (4%) showed an effect of 50% or more. This is one part of a sample in which strong results are shown more often than they occur.
Please enter Y where INHIBITION is greater than or equal to 20%, and N where it is lower.

# example entries with known answers
In [3]: df
Out[3]:
                                   compound  assigned_category
0  COc1ccc(C2(C(=O)N3C[C@@H](C(=O)O)[C@H](C(C)C)C3)CC2)cc1                  N
1  CC(C)CN1CCNC(=O)C12CCN(S(=O)(=O)c1ccc(F)cc1)CC2                  Y
2  CCN1CC2(CCC1=O)CCN(Cc1cccc(OC(F)F)c1)CC2                  N
3  CC(C)C(=O)N1CC[C@H]2N(C)CC[C@@]2(C(=O)N2CCOCC2)CC1                  Y
4   COCCn1ccnc1C1CCN(C(=O)c2cccc(COC)n2)CC1                  N

Please examine the following record next.
Req: hey, is INHIBITION for this one >= 20%? CCN(CCS(=O)(=O)CC)CC1CCCO1 (stereo unspecified)
Resp: N

###

The entries below are paired with their reported INHIBITION.
# Tested on: Plasmodium berghei
# assay-method-text: Screen against P. berghei liver stage (PbLuc), transformed with Luciferase, at 2uM
# Format: functional, HepG2
# cond: tested at 2 uM
Out of some 68,000 compounds screened, about 2,700 (4%) showed an effect of 50% or more. The list comes from a sample in which strong results are over-represented; it also holds close analogues and randomly drawn compounds.
Your answer is read as %, so omit the unit and give the number.

Req: Name the recorded INHIBITION for Cc1ccccc1[C@@H]1CN(Cc2ccc(C(F)(F)F)nc2)C[C@H]1C(=O)O .
Resp: 67.28

Req: Name the recorded INHIBITION for NC(=O)c1cnn2c1NCC(CNCC1(c3ccccc3)CCCC1)C2 (stereo unspecified) .
Resp: -181.66

Req: Name the recorded INHIBITION for Cc1ccccc1[C@@H]1CN(CCCS(=O)(=O)N(C)C)C[C@H]1C(=O)O .
Resp: 52.3

Req: Name the recorded INHIBITION for CN(C)CC(=O)N1CCC2(CC1)CN(c1ncccn1)CCO2 .
Resp: 25.4

Req: Name the recorded INHIBITION for CCC[C@@H]1CN(Cc2ccc(C(F)(F)F)nc2)C[C@H]1C(=O)O .
Resp: 21.97

Req: Name the recorded INHIBITION for O=S(=O)(Cc1ccccc1Cl)NCCCN1CCCC1 .
Resp: 49.88

###

# Tested on: Plasmodium berghei
# assay-method-text: Screen against P. berghei liver stage (PbLuc), transformed with Luciferase, at 2uM
# Format: functional, HepG2
# cond: tested at 2 uM
The campaign covered roughly 68,000 compounds. About 2,700 (4%) showed an effect of 50% or more. This excerpt belongs to a sample that is enriched for strong results.
True if INHIBITION is below 40%. False if not; exact matches included in False.

# example entries with known answers
In [3]: df
Out[3]:
                                   molecule  assigned_category
0  Cc1cncc(C2CCCN(C(=O)c3ccc(C)[nH]c3=O)C2)n1 (stereo not given)               True
1  CC(C)c1ccc(S(=O)(=O)Cc2nc(N)nc(N(C)C)n2)cc1               True

Req: For this molecule, is INHIBITION lower than 40%? Cc1cncc(C2CCCN(Cc3ccncc3)C2)n1 (stereo not given)
Resp: True

Req: For this molecule, is INHIBITION lower than 40%? CC1CCN(C(=O)[C@H]2CC[C@@H]3[C@@H](CCN3Cc3nccs3)O2)CC1
Resp: False

Req: For this molecule, is INHIBITION lower than 40%? O=C([C@H]1CC[C@@H]2[C@@H](CCN2Cc2nccs2)O1)N1CCOCC1
Resp: False

Req: For this molecule, is INHIBITION lower than 40%? CCn1c(Cn2cncn2)nnc1C1CCN(CC2[C@H]3CNC[C@@H]23)CC1 (stereo not given in full)
Resp: True

Req: For this molecule, is INHIBITION lower than 40%? Cn1cc(CN2CC[C@@H]3O[C@H](C(=O)N4CCOCC4)C[C@@H]32)cn1
Resp: False

Req: For this molecule, is INHIBITION lower than 40%? Fc1ccc(CN2CCCn3cnc(COCC4CC4)c3C2)cc1
Resp: True

Req: For this molecule, is INHIBITION lower than 40%? CC(CN1CCOCC1)NC(=O)N(C)Cc1ccc(Cl)s1 (stereo not given)
Resp: True

Req: For this molecule, is INHIBITION lower than 40%? Cc1ccc(-c2c[nH]c([C@@H]3COCCN3Cc3cccnc3)n2)cc1
Resp: True

Req: For this molecule, is INHIBITION lower than 40%? CN1CCN(C(=O)[C@H]2C[C@H]3[C@H](CCN3Cc3nccs3)O2)CC1
Resp: True

Req: For this molecule, is INHIBITION lower than 40%? O=C([C@H]1CC[C@@H]2[C@@H](CCN2Cc2nccs2)O1)N1CCCCO1
Resp: True

Req: For this molecule, is INHIBITION lower than 40%? CN(Cc1ccco1)Cc1cncc2c1CCN(S(C)(=O)=O)C2
Resp: False

Req: For this molecule, is INHIBITION lower than 40%? CN(C)C(=O)[C@@H]1CC[C@@H]2[C@@H](CCN2Cc2nccs2)O1
Resp: True
